target_of_assay: UniProt:P21554
Sequence (P21554 whole entry): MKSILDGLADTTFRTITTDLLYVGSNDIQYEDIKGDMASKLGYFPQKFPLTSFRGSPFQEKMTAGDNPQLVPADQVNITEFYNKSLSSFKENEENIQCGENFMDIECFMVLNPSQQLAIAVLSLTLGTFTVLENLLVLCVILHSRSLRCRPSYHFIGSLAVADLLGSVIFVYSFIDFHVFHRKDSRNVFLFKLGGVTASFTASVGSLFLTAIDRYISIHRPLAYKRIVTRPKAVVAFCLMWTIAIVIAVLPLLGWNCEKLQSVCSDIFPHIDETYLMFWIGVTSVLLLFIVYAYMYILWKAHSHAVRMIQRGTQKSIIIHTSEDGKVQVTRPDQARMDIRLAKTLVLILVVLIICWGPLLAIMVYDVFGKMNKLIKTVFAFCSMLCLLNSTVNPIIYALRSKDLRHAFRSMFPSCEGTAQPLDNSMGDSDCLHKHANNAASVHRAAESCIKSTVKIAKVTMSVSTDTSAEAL
reported_property: Ki

| structure_string | target_of_assay | observed_result |
| --- | --- | --- |
| COc1ccc2c(c1)c(CCN1CCOCC1)c(C)n2C(=O)c1cccc(Cl)c1Cl | UniProt:P21554 | 747 nM |

###

target_of_assay: non-canonical CBRs expressed in DU-145
procedure_details: Homologous receptor binding, DU-145
Parameters: species or system human
test_conditions: homologous competition with [^3H]WIN-55,212-2 (1 nM), read-out: affinity (KD)
pKd: −log10 of the molar value.

| compound | pKd |
| --- | --- |
| Cc1c(C(=O)c2cccc3ccccc23)c2cccc3c2n1[C@H](CN1CCOCC1)CO3 [WIN-55,212-2] | 8.37 |
